# key: entry, value: TGI
system: UO-31 renal; assay: NCI tumour cell line growth inhibition, 48 h
quantity_measured: TGI

molecule	meas_value
O=C(CCc1ccc(O)c(O)c1)NCCc1cc(OCc2ccccc2)cc(OCc2ccccc2)c1	12.6 µM
O=c1cc(CC(O)(C(F)(F)Cl)C(F)(F)Cl)[nH]n1-c1ccccc1	> 100 µM
CC(C)=CCc1c(C)cc2cc3c(c(O)c2c1O)C(O)=CC(=O)C3(CC=C(C)C)C/C=C(\C)CO (configuration not stated)	64.4 µM
CC1=C(c2cc(C(=O)Nc3ccc(Cl)c(Cl)c3)nc(N)n2)Sc2ccccc2N1	> 100 µM
CNc1ccc(-c2cc(=O)oc3ccc(Cl)cc23)cc1	> 100 µM
O=c1cc(-c2ccccc2)oc2ccc(Oc3nnnn3-c3ccccc3)cc12	> 100 µM
COc1cc2c3c(n(CCN(C)C)c(=O)c2cc1OC)-c1cc2c(cc1C3=O)OCO2	> 100 µM
[C-]#[O+].[Cl][Sn]([Cl])[Cl].[Cl][Sn]([Cl])[Cl].[Pt].c1ccncc1	> 100 µM
COC(=O)/C=C1/N=C(N(C)/N=C/c2ccccc2)NC1=O	> 100 µM
N#CCC(=O)N/N=C1\C(=O)N(c2ccc(Cl)cc2)C(=O)C(=O)C1c1nc2ccccc2o1 (configuration not stated)	> 100 µM
CCCCN(CCCC)CCCN=c1nc2c(c(N)n1-c1ccccc1)c(=S)n(-c1ccccc1)c(=S)n2-c1ccccc1	1.02 µM
O=P1(Oc2ccc(Cl)cc2)OCCS1 (configuration not stated)	> 100 µM
CCN(CC)C(=S)SC1CCOP(=O)(N(CCCl)CCCl)N1C (configuration not stated)	> 96.4 µM
CC1(C)CC2C=C(C=O)C3(C=O)CC3(C)C2C1 (configuration not stated)	3.29 µM
C[C@H]1CC(=O)C2=CCCC3(SCCCS3)[C@@H]2[C@H]1CO	> 100 µM
O=c1c2ccccc2nc(-c2ccccc2)n1NC(=S)Nc1ccc(Cl)cc1[N+](=O)[O-]	> 100 µM
CCN(CC)CCNC(=O)c1cccc2cc3ccccc3nc12	22.1 µM
O=C(O)CCCCn1cnc2c(=S)nc[nH]c21	> 100 µM
COC(=O)c1ccc([N+](=O)[O-])c(O)c1	> 100 µM
N#CC1CCN2N=C(c3ccccc3)SC12c1ccccc1 (configuration not stated)	> 100 µM
CC(C)[Si](OC1=C(C(=O)N(C)c2ccccc2Cl)CCC1)(C(C)C)C(C)C	29.4 µM
CN1c2ccccc2S(=O)(=O)n2c(COc3ccc(Cl)cc3)nnc21	> 100 µM

----------
# key: entry, value: TGI
test system: SN12C renal; test: NCI tumour cell line growth inhibition, 48 h

compound	TGI
O=C1c2ccccc2C(=O)N1CCCCCCNOCCCN1C(=O)c2ccccc2C1=O	> 100 µM
CCCN(CCC)CCCNC(=O)c1cc2c(-c3ccc(OC)c(OC)c3)nn(C)c2s1	> 100 µM
c1ccc2sc(C3(N4CCCCC4)CCCCCC3)cc2c1	41.4 µM
N#CN1CCC[C@H]1C(=O)N1CCc2c(-c3[nH]nc4ncccc34)cccc21	48.2 µM
O=c1cc(-c2ccccc2)oc2ccc(Oc3nnnn3-c3ccccc3)cc12	> 100 µM
CN(C)CCCNc1nccc(-c2c(-c3ccc(F)cc3)nn3cc(C(F)(F)F)ccc23)n1	> 25 µM
CC(=O)OC1CCC2(C)C(=CCC3C2CCC2(C)C(C(C)C(=O)O)CCC32)C1 (stereo not given)	> 100 µM
C[C@@H](NC(=O)OC1C=CC2(CC1)C(=O)N(C)c1ccccc12)c1cccc2ccccc12 (stereo not given in full)	> 25 µM
CSc1ccc2c(cc1=O)C(NC(=O)c1ccc(OC(C)=O)cc1)CCc1cc(O)c(O)c(O)c1-2 (stereo not given)	31.6 µM
O=S1(=O)CS(=O)(=O)OCCCO1	> 100 µM
